Taken from patent US11987588B2.

Molecular target: UniProtKB P13945
Sequence (P13945 whole entry, species assumed): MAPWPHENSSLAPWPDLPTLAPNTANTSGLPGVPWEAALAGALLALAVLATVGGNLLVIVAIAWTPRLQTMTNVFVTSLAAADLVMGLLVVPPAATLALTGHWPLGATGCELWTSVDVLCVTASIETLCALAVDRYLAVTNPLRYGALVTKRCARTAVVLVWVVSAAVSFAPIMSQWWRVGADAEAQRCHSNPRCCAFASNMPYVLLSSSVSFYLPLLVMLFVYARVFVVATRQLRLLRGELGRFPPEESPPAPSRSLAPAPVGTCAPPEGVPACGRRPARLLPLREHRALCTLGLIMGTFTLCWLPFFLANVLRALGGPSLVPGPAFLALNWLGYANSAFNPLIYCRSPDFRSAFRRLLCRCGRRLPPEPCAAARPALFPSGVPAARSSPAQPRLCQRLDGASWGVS
Assay: Homogeneous Time-Resolved Fluorescence (HTRF) cAMP antagonist assay, IC50 determination
Settings: CHO-K1 cells stably expressing recombinant receptor, isoproterenol at EC90
pIC50: −log10 of the molar value.

>  <molecule>
CNS(=O)(=O)c1cccc(OC[C@@H](O)CNC2COC3(CCN(S(=O)(=O)c4cccc(-c5ccc(CC(=O)O)cc5)c4)CC3)C2)c1 (stereo partly shown) [Compound 87]

>  <pIC50>
7.18

$$$$
>  <molecule>
CNCc1ccc(-c2cccc(S(=O)(=O)N3CCC4(CC3)CC(NC[C@H](O)COc3cccc(S(=O)(=O)NC)c3)CO4)c2)cc1 (stereo partly shown) [Compound 301]

>  <pIC50>
7.50

$$$$
>  <molecule>
CNC(=O)[C@@H](NS(=O)(=O)c1cccc(OC[C@@H](O)CNC2COC3(CCN(S(=O)(=O)c4ccc5ccccc5c4)CC3)C2)c1)[C@@H](C)O (stereo partly shown) [Compound 92]

>  <pIC50>
5.70

$$$$
>  <molecule>
NS(=O)(=O)c1cccc(OC[C@@H](O)CN[C@H]2COC3(CCN(S(=O)(=O)c4ccc5ncccc5c4)CC3)C2)c1 [Compound 566]

>  <pIC50>
7.10

$$$$
>  <molecule>
CCNS(=O)(=O)c1cccc(OC[C@@H](O)CNC2COC3(CCN(S(=O)(=O)c4ccc(Cl)c5nonc45)CC3)C2)c1 (stereo partly shown) [Compound 235]

>  <pIC50>
6.97

$$$$
>  <molecule>
CNS(=O)(=O)c1cccc(OC[C@@H](O)CNC2COC3(CCN(S(=O)(=O)c4ccc(N5CCCCC5)nc4)CC3)C2)c1 (stereo partly shown) [Compound 421]

>  <pIC50>
7.77

$$$$
>  <molecule>
O=S(=O)(NCCF)c1cccc(OC[C@@H](O)CN[C@H]2COC3(CCN(S(=O)(=O)c4cnc5ccccc5c4)CC3)C2)c1 [Compound 394]

>  <pIC50>
7.33

$$$$
>  <molecule>
CNS(=O)(=O)c1cccc(OC[C@@H](O)CNC2COC3(CCN(S(=O)(=O)c4cccc(-c5ccccn5)c4)CC3)C2)c1 (stereo partly shown) [Compound 102]

>  <pIC50>
7.59

$$$$
>  <molecule>
CN(C)S(=O)(=O)c1cccc(OC[C@@H](O)CNC2COC3(CCN(S(=O)(=O)c4cccc(Cl)c4)CC3)C2)c1 (stereo partly shown) [Compound 246]

>  <pIC50>
7.41

$$$$
>  <molecule>
Cc1noc(C)c1S(=O)(=O)N1CCC2(CC1)CC(NC[C@H](O)COc1cccc(S(=O)(=O)N(C)C)c1)CO2 (stereo partly shown) [Compound 254]

>  <pIC50>
7.01

$$$$
>  <molecule>
CN(C1CC1)S(=O)(=O)c1cccc(OC[C@@H](O)CNC2COC3(CCN(S(=O)(=O)c4ccc5ccccc5c4)CC3)C2)c1 (stereo partly shown) [Compound 90]

>  <pIC50>
7.31

$$$$
>  <molecule>
CNS(=O)(=O)c1cccc(OC[C@@H](O)CN[C@H]2COC3(CCN(c4ncc(C(=O)OC)cn4)CC3)C2)c1 [Compound 581]

>  <pIC50>
6.10

$$$$
>  <molecule>
CNS(=O)(=O)c1cccc(OC[C@@H](O)CNC2COC3(CCN(S(=O)(=O)c4cc(C)ccc4OC)CC3)C2)c1 (stereo partly shown) [Compound 176]

>  <pIC50>
7.63

$$$$
